Molecular target: TSLP (Homo sapiens)
Sequence (Q969D9 29-159): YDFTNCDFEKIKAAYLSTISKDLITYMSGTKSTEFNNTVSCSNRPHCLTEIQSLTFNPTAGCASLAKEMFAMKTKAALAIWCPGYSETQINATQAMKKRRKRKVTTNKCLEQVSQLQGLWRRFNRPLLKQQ
Test: Human TSLP Surface Plasmon Resonance (SPR) binding assay
Details: biotinylated human TSLP immobilized on streptavidin chip; 20° C.; steady-state or kinetic 1:1 fit; read-out: hTSLP SPR Kd
observable: Kd (nM)

compound	recorded_number
CC(=O)N[C@H]1CSCCC(=O)N2CN3CN(C2)C(=O)CCSC[C@H](NC(=O)[C@H](CC(=O)O)NC(=O)[C@H](CCC(=O)O)NC(=O)[C@H](CC(C)C)NC(=O)[C@H](Cc2cccc4ccccc24)NC(=O)[C@H](CCC(N)=O)NC1=O)C(=O)N[C@@H](Cc1c[nH]c2ccccc12)C(=O)N[C@@H](CCCNC(=N)N(C)C)C(=O)NCC(=O)N[C@@H](Cc1ccc(F)cc1)C(=O)N[C@H](C(=O)O)CSCCC3=O [Example 69, Ac-(SEQ ID NO: 34)-COOH]	77
CC(=O)N[C@H]1CSCCC(=O)N2CN3CN(C2)C(=O)CCSC[C@H](NC(=O)[C@H](CC(=O)O)NC(=O)[C@H](CCC(=O)O)NC(=O)[C@H](CC(C)C)NC(=O)[C@H](Cc2c[nH]c4ccccc24)NC(=O)[C@H](CCC(N)=O)NC1=O)C(=O)N[C@@H](Cc1c[nH]c2ccccc12)C(=O)N[C@@H](CCCNC(=N)N)C(=O)NCC(=O)N[C@@H](Cc1cccnc1)C(=O)N[C@H](C(N)=O)CSCCC3=O [Example 158, Ac-(SEQ ID NO: 116)]	5400
CC(=O)N[C@H]1CSCCC(=O)N2CN3CN(C2)C(=O)CCSC[C@H](NC(=O)[C@H](CC(=O)O)NC(=O)[C@H](CCC(=O)O)NC(=O)[C@H](CC(C)C)NC(=O)[C@H](Cc2c[nH]c4ccccc24)NC(=O)[C@H](CCC(N)=O)NC1=O)C(=O)N[C@@H](Cc1c[nH]c2ccccc12)C(=O)N[C@@H](CCCNC(=N)N)C(=O)NCC(=O)N[C@@H](Cc1ccccn1)C(=O)N[C@H](C(N)=O)CSCCC3=O [Example 146, Ac-(SEQ ID NO: 105)]	910

###

Target: TSLP (Homo sapiens)
Assay: Human TSLP Surface Plasmon Resonance (SPR) binding assay
Conditions: biotinylated human TSLP immobilized on streptavidin chip; 20° C.; steady-state or kinetic 1:1 fit; read-out: hTSLP SPR Kd
As shown below, each of these compounds has a reported Kd value.

compound	Kd [nM]
CC(C)C[C@@H]1NC(=O)[C@H](Cc2c[nH]c3ccccc23)NC(=O)[C@H](Cc2c[nH]c3ccccc23)NC(=O)[C@H]([C@@H](C)O)NC(=O)[C@H](CCC(=O)O)NC(=O)[C@@H]2CSCCC(=O)N3CN(CN(C3)C(=O)CCSC[C@H](N)C(=O)N[C@@H]([C@@H](C)O)C(=O)N[C@@H](CCC(=O)O)C(=O)N[C@@H](CC(C)C)C(=O)N[C@@H](CC(=O)O)C(=O)N3CC(F)(F)C[C@H]3C(=O)N[C@@H](Cc3c[nH]c4ccccc34)C(=O)N[C@@H]([C@@H](C)O)C(=O)N2)C(=O)CCSC[C@@H](C(N)=O)NC1=O [Example 182, (SEQ ID NO: 133)]	1300
COc1ccc(C[C@@H]2NC(=O)CNC(=O)[C@H](CCCNC(=N)N)NC(=O)[C@H](Cc3c[nH]c4ccccc34)NC(=O)[C@@H]3CSCCC(=O)N4CN(CN(C4)C(=O)CCSC[C@H](NC(C)=O)C(=O)N[C@@H](CCC(N)=O)C(=O)N[C@@H](Cc4c[nH]c5ccccc45)C(=O)N[C@@H](CC(C)C)C(=O)N[C@@H](CCC(=O)O)C(=O)N[C@@H](CC(=O)O)C(=O)N3)C(=O)CCSC[C@@H](C(N)=O)NC2=O)cc1 [Example 142, Ac-(SEQ ID NO: 101)]	710

Cited source for all entries: patent US11866518B2
